tested on: Hela; experiment: CCK-8 antiproliferative assay, Hela; assay type: cell-based; conditions: Homo sapiens, HeLa, 72 h, read-out: IC50 (µM) Hela
measured_metric: IC50 (µM)
The figure you give is taken to be in µM; do not add the unit.

# count of solved cases: 3
> print(dat)
                                   molecule  measured.metric  observed.result
1  COc1ccc(CC2Cc3cc(OC)c(OC)c(OC)c3C2)cc1N (stereo not shown) [Compound 12j]             IC50            0.136
2  COc1ccc(CC2Cc3cc(OC)c(OC)cc3C2)cc1O [Compound 15a]             IC50            0.317
3  COc1ccc(CC2Cc3c(cc(OC)c(OC)c3OC)O2)cc1O (stereo not shown) [Compound 15c]             IC50            0.309

Query: # lookup: IC50 of COc1ccc(CC2Cc3cc(O)c(OC)cc3C2)cc1O (stereo not shown) [Compound 15b]
Response: 3.17
